System: SNB-19
experiment_description: NCI 60 five-dose screen SNB-19
Format: cell-based
test_conditions: Homo sapiens, five-dose

compound	IC (TGI) / µM
FC(F)(F)c1cc2c(Cl)ncnc2n1CCN1CCOCC1	33.1
FC(F)(F)CN1CCN(CCn2c(C(F)(F)F)cc3c(Cl)ncnc32)CC1	26.9
FC(F)(F)c1cc2c(Cl)ncnc2n1CCC1CCOCC1	18.2
FC(F)(F)c1cc2c(Cl)ncnc2n1CCN1CCCCC1	30.9
OC1CCC(Cn2c(C(F)(F)F)cc3c(Cl)ncnc32)CC1 (centres unmarked)	26.9

###

Test system: HCT-15
experiment_description: NCI 60 five-dose screen HCT-15
Format: cell-based
test_conditions: Homo sapiens, five-dose, read-out: LC50 (the source's name) (converted)
Listed below: CC50 values for each entry.

compound	qual	CC50, µM
FC(F)(F)c1cc2c(Cl)ncnc2n1CCC1CCOCC1	=	41.7
OC1CCC(Cn2c(C(F)(F)F)cc3c(Cl)ncnc32)CC1 (centres unmarked)	≥	100
FC(F)(F)c1cc2c(Cl)ncnc2n1CCN1CCCCC1	=	55
FC(F)(F)c1cc2c(Cl)ncnc2n1CCN1CCOCC1	≥	100
FC(F)(F)CN1CCN(CCn2c(C(F)(F)F)cc3c(Cl)ncnc32)CC1	=	50.1

###

Tested on: SK-MEL-2
experiment_description: NCI 60 five-dose screen SK-MEL-2
Format: cell-based
test_conditions: Homo sapiens, five-dose

molecule	value_unit	IC (TGI)
FC(F)(F)c1cc2c(Cl)ncnc2n1CCC1CCOCC1 [NUCC-0226674]	µM	28.2
FC(F)(F)CN1CCN(CCn2c(C(F)(F)F)cc3c(Cl)ncnc32)CC1 [NUCC-0226683]	µM	30.9
OC1CCC(Cn2c(C(F)(F)F)cc3c(Cl)ncnc32)CC1 (centres unmarked) [NUCC-0226689]	µM	28.2
FC(F)(F)c1cc2c(Cl)ncnc2n1CCN1CCCCC1 [NUCC-0226679]	µM	33.1
FC(F)(F)c1cc2c(Cl)ncnc2n1CCN1CCOCC1 [NUCC-0226680]	µM	33.1

###

Each item that follows carries a reported IC50.
Tested on: SF-268
experiment_description: NCI 60 five-dose screen SF-268
Type: cell-based
test_conditions: Homo sapiens
property: IC50

structure_smiles	property	reported
O=c1ccc(Cn2c(C(F)(F)F)cc3c(Cl)ncnc32)c[nH]1	IC50	20.9 µM
COc1cc(Cn2c(C(F)(F)F)cc3c(Cl)ncnc32)ccn1	IC50	4.57 µM
Fc1ccc(N2CC(Cn3c(C(F)(F)F)cc4c(Cl)ncnc43)C2)c(F)c1	IC50	5.62 µM

###

System: ACHN
experiment_description: NCI 60 five-dose screen ACHN
Format: cell-based
test_conditions: Homo sapiens, five-dose
IC (TGI) overview

compound	system	IC (TGI) [µM]
OC1CCC(Cn2c(C(F)(F)F)cc3c(Cl)ncnc32)CC1 (centres unmarked)	ACHN	50.1
FC(F)(F)c1cc2c(Cl)ncnc2n1CCN1CCOCC1	ACHN	100
FC(F)(F)c1cc2c(Cl)ncnc2n1CCC1CCOCC1	ACHN	26.3
FC(F)(F)c1cc2c(Cl)ncnc2n1CCN1CCCCC1	ACHN	100
FC(F)(F)CN1CCN(CCn2c(C(F)(F)F)cc3c(Cl)ncnc32)CC1	ACHN	100

###

Test system: SF-295
experiment_description: NCI 60 five-dose screen SF-295
Assay type: cell-based
test_conditions: Homo sapiens, five-dose
Entries and their measured GI50 follow.
property: GI50 (µM)

compound	reported
FC(F)(F)CN1CCN(CCn2c(C(F)(F)F)cc3c(Cl)ncnc32)CC1	10.2
FC(F)(F)c1cc2c(Cl)ncnc2n1CCN1CCOCC1	24.5
OC1CCC(Cn2c(C(F)(F)F)cc3c(Cl)ncnc32)CC1 (centres unmarked)	22.9
FC(F)(F)c1cc2c(Cl)ncnc2n1CCN1CCCCC1	22.4
FC(F)(F)c1cc2c(Cl)ncnc2n1CCC1CCOCC1	13.8

###

Tested on: SF-539
experiment_description: NCI 60 five-dose screen SF-539
Assay type: cell-based
test_conditions: Homo sapiens, five-dose

molecule	GI50 (µM)
FC(F)(F)CN1CCN(CCn2c(C(F)(F)F)cc3c(Cl)ncnc32)CC1	12.6
FC(F)(F)c1cc2c(Cl)ncnc2n1CCN1CCCCC1	17
OC1CCC(Cn2c(C(F)(F)F)cc3c(Cl)ncnc32)CC1 (centres unmarked)	17.8
FC(F)(F)c1cc2c(Cl)ncnc2n1CCN1CCOCC1	18.2
FC(F)(F)c1cc2c(Cl)ncnc2n1CCC1CCOCC1	13.8

###

Tested on: HOP-62
experiment_description: NCI 60 five-dose screen HOP-62
Assay type: cell-based
test_conditions: Homo sapiens, five-dose, read-out: LC50 (the source's name) (converted)
property: CC50 (µM)

compound	system	property	value_unit	qual	reported
OC1CCC(Cn2c(C(F)(F)F)cc3c(Cl)ncnc32)CC1 (centres unmarked)	HOP-62	CC50	µM	≥	100
FC(F)(F)c1cc2c(Cl)ncnc2n1CCN1CCCCC1	HOP-62	CC50	µM	≥	100
FC(F)(F)c1cc2c(Cl)ncnc2n1CCN1CCOCC1	HOP-62	CC50	µM	≥	100
FC(F)(F)CN1CCN(CCn2c(C(F)(F)F)cc3c(Cl)ncnc32)CC1	HOP-62	CC50	µM	=	75.9
FC(F)(F)c1cc2c(Cl)ncnc2n1CCC1CCOCC1	HOP-62	CC50	µM	=	72.4

###

Test system: MALME-3M
experiment_description: NCI 60 five-dose screen MALME-3M
Type: cell-based
test_conditions: Homo sapiens; MALME-3M; five-dose
property: IC (TGI) (µM)

molecule	property	value_unit	reported
FC(F)(F)CN1CCN(CCn2c(C(F)(F)F)cc3c(Cl)ncnc32)CC1	IC (TGI)	µM	32.4
FC(F)(F)c1cc2c(Cl)ncnc2n1CCN1CCOCC1	IC (TGI)	µM	67.6
FC(F)(F)c1cc2c(Cl)ncnc2n1CCN1CCCCC1	IC (TGI)	µM	55
OC1CCC(Cn2c(C(F)(F)F)cc3c(Cl)ncnc32)CC1 (centres unmarked)	IC (TGI)	µM	64.6
FC(F)(F)c1cc2c(Cl)ncnc2n1CCC1CCOCC1	IC (TGI)	µM	29.5

###

Tested on: DU-145
experiment_description: NCI 60 five-dose screen DU-145
Assay type: cell-based
test_conditions: Homo sapiens, five-dose, read-out: LC50 (the source's name) (converted)

compound	value_unit	qual	CC50
FC(F)(F)c1cc2c(Cl)ncnc2n1CCN1CCOCC1	µM	≥	100
FC(F)(F)c1cc2c(Cl)ncnc2n1CCC1CCOCC1	µM	=	39.8
FC(F)(F)CN1CCN(CCn2c(C(F)(F)F)cc3c(Cl)ncnc32)CC1	µM	=	87.1
FC(F)(F)c1cc2c(Cl)ncnc2n1CCN1CCCCC1	µM	≥	100
OC1CCC(Cn2c(C(F)(F)F)cc3c(Cl)ncnc32)CC1 (centres unmarked)	µM	=	46.8

###

A collection of molecules and their measured IC (TGI)
System: HCT-15
experiment_description: NCI 60 five-dose screen HCT-15
Type: cell-based
test_conditions: Homo sapiens, five-dose
property: IC (TGI) (µM)

molecule	value_unit	reported
OC1CCC(Cn2c(C(F)(F)F)cc3c(Cl)ncnc32)CC1 (centres unmarked) [NUCC-0226689]	µM	20
FC(F)(F)c1cc2c(Cl)ncnc2n1CCC1CCOCC1 [NUCC-0226674]	µM	11
FC(F)(F)CN1CCN(CCn2c(C(F)(F)F)cc3c(Cl)ncnc32)CC1 [NUCC-0226683]	µM	7.41
FC(F)(F)c1cc2c(Cl)ncnc2n1CCN1CCOCC1 [NUCC-0226680]	µM	17.8
FC(F)(F)c1cc2c(Cl)ncnc2n1CCN1CCCCC1 [NUCC-0226679]	µM	12.9

###

Tested on: CAKI-1
experiment_description: NCI 60 five-dose screen CAKI-1
Assay type: cell-based
test_conditions: Homo sapiens, five-dose
Rule: GI50 below 20 µM gives satisfied. Equal to or above 20 µM gives not satisfied.

molecule	category
FC(F)(F)c1cc2c(Cl)ncnc2n1CCN1CCOCC1	not satisfied
FC(F)(F)c1cc2c(Cl)ncnc2n1CCC1CCOCC1	satisfied
FC(F)(F)CN1CCN(CCn2c(C(F)(F)F)cc3c(Cl)ncnc32)CC1	satisfied
OC1CCC(Cn2c(C(F)(F)F)cc3c(Cl)ncnc32)CC1 (centres unmarked)	satisfied
FC(F)(F)c1cc2c(Cl)ncnc2n1CCN1CCCCC1	not satisfied

###

Tested on: SN12C
experiment_description: NCI 60 five-dose screen SN12C
Assay type: cell-based
test_conditions: Homo sapiens, five-dose

molecule	system	value_unit	IC50
FC(F)(F)c1cc2c(Cl)ncnc2n1CCC1CCOCC1	SN12C	µM	12.6
FC(F)(F)CN1CCN(CCn2c(C(F)(F)F)cc3c(Cl)ncnc32)CC1	SN12C	µM	13.8
FC(F)(F)c1cc2c(Cl)ncnc2n1CCN1CCOCC1	SN12C	µM	38.9
FC(F)(F)c1cc2c(Cl)ncnc2n1CCN1CCCCC1	SN12C	µM	34.7
OC1CCC(Cn2c(C(F)(F)F)cc3c(Cl)ncnc32)CC1 (centres unmarked)	SN12C	µM	10
